test name: Accumulation (Kp) in NR8383 over a concentration range, two-site binding model
protocol conditions: rat, Kp,max, sum of Kp,U1,max and Kp,min, control

>  <molecule>
COc1ccc(CC(C)NCC(O)c2ccc(O)c(NC=O)c2)cc1 (stereo not shown)

>  <Kp at 10 min>
69

$$$$

====

test name: Drug uptake in NR8383 at 37 and 4°C (CLuptake, CLdiff, Kp)
protocol conditions: rat, NR8383 cells, Kp (cell-to-medium concentration ratio), NR8383, 5 μM, 37°C, 10 min
measured parameter: Kp at 10 min, 5 μM

>  <molecule>
CC(C)(C)NCC(O)c1cc(O)cc(O)c1 (stereo not drawn) [Terbutaline]

>  <observed value>
~1

$$$$
>  <molecule>
C[N+]1(C)[C@@H]2C[C@@H](OC(=O)C(O)(c3cccs3)c3cccs3)C[C@H]1[C@@H]1O[C@@H]12 [Tiotropium bromide]

>  <observed value>
8.74

$$$$
>  <molecule>
CCCC1O[C@@H]2C[C@H]3[C@@H]4CCC5=CC(=O)C=C[C@]5(C)[C@H]4[C@@H](O)C[C@]3(C)[C@]2(C(=O)CO)O1 (stereo partly drawn) [Budesonide]

>  <observed value>
37.6

$$$$

====

test name: Lysosomal sequestration studies in NR8383 with NH4Cl, monensin and nigericin
protocol conditions: rat, Kp Control, NR8383, 5 μM drug, control

>  <molecule>
CC(Cc1ccc(O)cc1)NCC(O)c1cc(O)cc(O)c1 (centres unmarked)

>  <Kp at 10 min, 5 μM>
4.25

$$$$
>  <molecule>
COc1ccc(CC(C)NCC(O)c2ccc(O)c(NC=O)c2)cc1 (centres unmarked)

>  <Kp at 10 min, 5 μM>
20.8

$$$$

====

test name: Drug uptake in NR8383 at 37 and 4°C (CLuptake, CLdiff, Kp)
protocol conditions: rat
measured parameter: Kp at 10 min, 5 μM

>  <compound>
CC(Cc1ccc(O)cc1)NCC(O)c1cc(O)cc(O)c1 (centres unmarked)

>  <measured parameter>
Kp at 10 min, 5 μM

>  <observed value>
5.69

$$$$
>  <compound>
COc1ccc(CC(C)NCC(O)c2ccc(O)c(NC=O)c2)cc1 (centres unmarked)

>  <measured parameter>
Kp at 10 min, 5 μM

>  <observed value>
24.5

$$$$

====

test name: Accumulation (Kp) in NR8383 over a concentration range, two-site binding model
protocol conditions: rat, Kp,min, NR8383, 37°C, concentration range, two-site binding model, control

>  <compound>
COc1ccc(CC(C)NCC(O)c2ccc(O)c(NC=O)c2)cc1 (stereo not shown)

>  <Kp at 10 min>
10

$$$$

====

test name: Lysosomal sequestration studies in NR8383 with NH4Cl, monensin and nigericin
protocol conditions: rat, NR8383 cells, Kp + NH4Cl, NR8383, 5 μM drug, 20 mM NH4Cl co-incubated, 10 min
Listing: Kp at 10 min, 5 μM of selected compounds
measured parameter: Kp at 10 min, 5 μM

>  <compound>
C[N+]1(C)[C@@H]2C[C@@H](OC(=O)C(O)(c3cccs3)c3cccs3)C[C@H]1[C@@H]1O[C@@H]12 [Tiotropium bromide]

>  <observed value>
3.87

$$$$
>  <compound>
CC(C)(C)NCC(O)c1cc(O)cc(O)c1 (stereo not drawn) [Terbutaline]

>  <observed value>
0.72

$$$$
>  <compound>
CCCC1O[C@@H]2C[C@H]3[C@@H]4CCC5=CC(=O)C=C[C@]5(C)[C@H]4[C@@H](O)C[C@]3(C)[C@]2(C(=O)CO)O1 (stereo partly drawn) [Budesonide]

>  <observed value>
28.1

$$$$

====

Test system: NR8383 cells
test name: Drug uptake in NR8383 at 37 and 4°C (CLuptake, CLdiff, Kp)
protocol conditions: NR8383, 5 μM; CLdiff relative to CLuptake
Listing: Contribution of passive (%) of selected compounds

>  <compound>
CCCC1O[C@@H]2C[C@H]3[C@@H]4CCC5=CC(=O)C=C[C@]5(C)[C@H]4[C@@H](O)C[C@]3(C)[C@]2(C(=O)CO)O1 (stereo partly drawn) [Budesonide]

>  <subject of test>
NR8383 cells

>  <units label>
%

>  <Contribution of passive (%)>
97.2

$$$$
>  <compound>
C[N+]1(C)[C@@H]2C[C@@H](OC(=O)C(O)(c3cccs3)c3cccs3)C[C@H]1[C@@H]1O[C@@H]12 [Tiotropium bromide]

>  <subject of test>
NR8383 cells

>  <units label>
%

>  <Contribution of passive (%)>
16.3

$$$$
>  <compound>
CC[C@H]1OC(=O)[C@H](C)[C@@H](O[C@H]2C[C@@](C)(OC)[C@@H](O)[C@H](C)O2)[C@H](C)[C@@H](O[C@@H]2O[C@H](C)C[C@H](N(C)C)[C@H]2O)[C@](C)(OC)C[C@@H](C)C(=O)[C@H](C)[C@@H](O)[C@]1(C)O [Clarithromycin]

>  <subject of test>
NR8383 cells

>  <units label>
%

>  <Contribution of passive (%)>
0.53

$$$$
>  <compound>
COc1ccc(CC(C)NCC(O)c2ccc(O)c(NC=O)c2)cc1 (stereo not drawn) [Formoterol]

>  <subject of test>
NR8383 cells

>  <units label>
%

>  <Contribution of passive (%)>
3.71

$$$$
>  <compound>
CC(C)(C)NCC(O)c1cc(O)cc(O)c1 (stereo not drawn) [Terbutaline]

>  <subject of test>
NR8383 cells

>  <units label>
%

>  <Contribution of passive (%)>
47.6

$$$$
>  <compound>
CC(Cc1ccc(O)cc1)NCC(O)c1cc(O)cc(O)c1 (stereo not drawn) [Fenoterol]

>  <subject of test>
NR8383 cells

>  <units label>
%

>  <Contribution of passive (%)>
8.03

$$$$

====

System: NR8383 cells
test name: Lysosomal sequestration studies in NR8383 with NH4Cl, monensin and nigericin
protocol conditions: NR8383, at 5 µM drug
Marks after values point to notes of the source that are not given here.

>  <compound>
COc1ccc(CC(C)NCC(O)c2ccc(O)c(NC=O)c2)cc1 (stereo not drawn) [Formoterol]

>  <% Reduction in CLuptake by NH4Cl (20 mM)>
25 ± 14%

$$$$
>  <compound>
C[N+]1(C)[C@@H]2C[C@@H](OC(=O)C(O)(c3cccs3)c3cccs3)C[C@H]1[C@@H]1O[C@@H]12 [Tiotropium bromide]

>  <% Reduction in CLuptake by NH4Cl (20 mM)>
15 ^a %

$$$$
>  <compound>
CCCC1O[C@@H]2C[C@H]3[C@@H]4CCC5=CC(=O)C=C[C@]5(C)[C@H]4[C@@H](O)C[C@]3(C)[C@]2(C(=O)CO)O1 (stereo partly drawn) [Budesonide]

>  <% Reduction in CLuptake by NH4Cl (20 mM)>
18 ± 15%

$$$$
>  <compound>
CC(Cc1ccc(O)cc1)NCC(O)c1cc(O)cc(O)c1 (stereo not drawn) [Fenoterol]

>  <% Reduction in CLuptake by NH4Cl (20 mM)>
36 ± 12%

$$$$
>  <compound>
CC[C@H]1OC(=O)[C@H](C)[C@@H](O[C@H]2C[C@@](C)(OC)[C@@H](O)[C@H](C)O2)[C@H](C)[C@@H](O[C@@H]2O[C@H](C)C[C@H](N(C)C)[C@H]2O)[C@](C)(OC)C[C@@H](C)C(=O)[C@H](C)[C@@H](O)[C@]1(C)O [Clarithromycin]

>  <% Reduction in CLuptake by NH4Cl (20 mM)>
85 ± 7.5 %

$$$$
>  <compound>
CC(C)(C)NCC(O)c1cc(O)cc(O)c1 (stereo not drawn) [Terbutaline]

>  <% Reduction in CLuptake by NH4Cl (20 mM)>
15 ± 15%

$$$$

====

Listing: Kp at 10 min, 20 µM of selected molecules
test name: Lysosomal sequestration studies in NR8383 with NH4Cl, monensin and nigericin
protocol conditions: rat, NR8383 cells, Kp + NH4Cl, NR8383, 20 µM drug, 20 mM NH4Cl

>  <molecule>
CCCC1O[C@@H]2C[C@H]3[C@@H]4CCC5=CC(=O)C=C[C@]5(C)[C@H]4[C@@H](O)C[C@]3(C)[C@]2(C(=O)CO)O1 (stereo partly drawn) [Budesonide]

>  <Kp at 10 min, 20 µM>
31

$$$$
>  <molecule>
CC(C)(C)NCC(O)c1cc(O)cc(O)c1 (stereo not drawn) [Terbutaline]

>  <Kp at 10 min, 20 µM>
0.56

$$$$
>  <molecule>
C[N+]1(C)[C@@H]2C[C@@H](OC(=O)C(O)(c3cccs3)c3cccs3)C[C@H]1[C@@H]1O[C@@H]12 [Tiotropium bromide]

>  <Kp at 10 min, 20 µM>
2

$$$$

====

test name: Drug uptake in NR8383 at 37 and 4°C (CLuptake, CLdiff, Kp)
protocol conditions: rat, NR8383 cells

>  <molecule>
CC(C)(C)NCC(O)c1cc(O)cc(O)c1 (stereo not shown)

>  <hepatocyte CLint at 5 μM>
< 1 µL/min/1e6 cells

$$$$
